Reference for the values: PubChem BioAssay

experimentalProtocol: binders of probe aFST on microarray, primary screen, stem cell growth factor project, biochemical, small-molecule microarray, fluorescence 635/667 (AID 1086);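 note: score merges 667 nm fluorescence with signal-to-noise of each printed compound spot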
details: higher = more signal
measuredAttribute: composite z-score
Provide a numeric answer; units are not to be included.

Q: Which composite z-score reading was recorded for the compound CC(C)c1ccc(NN2C(C(O)C3CCCCC3)C=CC3C(=O)N(c4ccccc4)C(=O)C32)cc1 (stereo unspecified) ?
Ans: 1.62

Q: Which composite z-score reading was recorded for the compound `CC(C)(C)OC(=O)CC[C@]1(C(=O)N2CCOCC2)COC(c2ccc(OCCCO)cc2)=N1` ?
Ans: 0.163

Q: Which composite z-score reading was recorded for the compound `COc1ccc(C#Cc2ccc3c(c2)[C@]2(C(=O)N3)[C@H](c3ccccc3OCCO)N3[C@H](c4ccccc4)[C@H](c4ccccc4)OC(=O)[C@H]3[C@@H]2C(=O)NC[C@H](O)c2ccccc2)cc1` ?
Ans: 0.469

Q: Which composite z-score reading was recorded for the compound `C=C[C@H](OC)[C@@H](O)c1ccc(OC)c(O)c1` ?
Ans: -1

Q: Which composite z-score reading was recorded for the compound `[N-]=[N+]=NCc1ccccc1[C@H]1OC(c2ccc(OCCCO)cc2)=N[C@@]1(Cc1ccccc1N=[N+]=[N-])C(N)=O` ?
Ans: 1.76

Q: Which composite z-score reading was recorded for the compound CCOC(=O)C1=CCC(c2ccncc2)N(S(=O)(=O)c2ccc(C)cc2)C1 (stereo unspecified) ?
Ans: 0.981

* * *

experimentalProtocol: small-molecule binders of probe aNOTCH3, primary screen, biochemical, small-molecule microarray, 635/667 nm fluorescence (AID 1120);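 note: probe is a biotin-tagged antibody raised against NOTCH3 rather than NOTCH3 protein; score merges spot fluorescence near 667 nm with spot signal to noise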
details: higher = more signal
Give composite z-score for every item shown.
Provide a numeric answer; units are not to be included.

Q: Which composite z-score reading was recorded for the compound CS(=O)(=O)CCOC(=O)C1=CC(CCCO)=CC(C2CC2)N(Cc2sc3ccccc3c2Cl)C=C1C(=O)OCCS(C)(=O)=O (stereo not given) ?
Ans: 0.398

Q: Which composite z-score reading was recorded for the compound `COc1cccc(C)c1NC(=O)O[C@H]1[C@H](OC(=O)Nc2ccccc2)[C@@H](OC(=O)Nc2ccccc2)[C@@H](OC)O[C@@H]1CO` ?
Ans: 0.163

Q: Which composite z-score reading was recorded for the compound `COc1ccc(CCNC(=O)[C@@]2(C)c3ccccc3C(=O)N(Cc3ccc(OC(F)(F)F)cc3)[C@H]2c2ccc(CO)cc2)cc1` ?
Ans: -0.104

Q: Which composite z-score reading was recorded for the compound COC(=O)C1=CC(CCCO)=CC(c2ccc(CN3CCCC3)cc2)N(C)C=C1C(=O)OC (stereo not given) ?
Ans: -0.105

Q: Which composite z-score reading was recorded for the compound `C=CC[C@]1(C(N)=O)N=C(c2ccc(OCCCO)cc2)O[C@H]1c1ccccc1N=[N+]=[N-]` ?
Ans: 0.067

Q: Which composite z-score reading was recorded for the compound CN1C(=O)C2CC=C(C3=CCO[C@@H]3[C@H]3CCCN3S(=O)(=O)c3ccccc3[N+](=O)[O-])CC2C1=O (stereo not given in full) ?
Ans: -0.0647

Q: Which composite z-score reading was recorded for the compound `Cc1ccc(S(=O)(=O)N2[C@@H](c3ccccc3)C(C(=O)O)=CC[C@H]2c2ccc(F)cc2)cc1` ?
Ans: -0.0044

Q: Which composite z-score reading was recorded for the compound CC(C)N1CC=CC23O[C@@H]4/C=C\CCCOC(=O)C4[C@H]2C(=O)N(C(C)CO)[C@@H]3C1=O (stereo not given in full) ?
Ans: -0.24

Q: Which composite z-score reading was recorded for the compound `C=CCOC(=O)[C@H]1[C@@H]2C(=O)O[C@@H](c3ccccc3)[C@@H](c3ccccc3)N2[C@@H](c2ccc(OCCOC(=O)[C@@H]3C[C@@H]4C(=O)N[C@@H](Cc5ccccc5)C(=O)N4[C@@H]3c3ccc(O)cc3)cc2)[C@]12C(=O)Nc1ccc(I)cc12` ?
Ans: 0.698

Q: Which composite z-score reading was recorded for the compound `C=C(C(=O)CC[C@@H](OC(=O)c1ccccc1-c1ccccc1C(=O)O)c1cccc(OCCO)c1)C(C)C` ?
Ans: 0.107

Q: Which composite z-score reading was recorded for the compound C=CC[C@]1(C(=O)NCC(O)CO)N=C(c2ccc(OCCCO)cc2)O[C@H]1c1ccccc1CN=[N+]=[N-] (stereo not given in full) ?
Ans: -0.0362

Q: Which composite z-score reading was recorded for the compound `COc1ccc(CCNC(=O)[C@@]2(c3ccc([N+](=O)[O-])cc3)CC(=O)N(C3CCCCC3)[C@@H]2c2ccc(CO)cc2I)cc1` ?
Ans: 0.0293

Q: Which composite z-score reading was recorded for the compound `COC(=O)C(CC#Cc1ccc2c(c1)[C@]1(C(=O)N2)[C@H](C(=O)NC[C@H](O)c2ccccc2)[C@H]2C(=O)O[C@H](c3ccccc3)[C@H](c3ccccc3)N2[C@@H]1c1ccc(O)cc1)C(=O)OC` ?
Ans: -0.0932

Q: Which composite z-score reading was recorded for the compound `COc1c(C)cc(-c2cc3c(c(CCc4ccccc4)n2)[Si](C(C)C)(C(C)C)O[C@H]3c2ccccc2)cc1C` ?
Ans: -0.0728

Q: Which composite z-score reading was recorded for the compound CC[C@H]1C2=C3C(CC[C@H]4C(OCc5ccc(F)cc5C(F)(F)F)OC[C@](C)([C@@H]34)N(C(=O)OC(C)(C)C)C2)C(COC(C)=O)C1COC(C)=O (stereo not given in full) ?
Ans: 0.335

Q: Which composite z-score reading was recorded for the compound O=C1NC(=O)C2C1C=CC(C(O)c1ccc(F)cc1)N2Nc1ccc(Cl)cc1Cl (stereo not given) ?
Ans: 0.0488

Q: Which composite z-score reading was recorded for the compound `C=C(COC)C(=O)CC[C@@H](OC(=O)c1ccccc1-c1ccccc1C(=O)O)c1ccccc1OCCO` ?
Ans: -0.122

Q: Which composite z-score reading was recorded for the compound `O=C1O[C@@H](c2ccccc2)[C@@H](c2ccccc2)N2[C@@H](c3ccc(OCCO)cc3)[C@]3(C(=O)Nc4ccc(C#CC5=CCCCC5)cc43)[C@@H](C(=O)Nc3nc4ccccc4s3)[C@H]12` ?
Ans: 0.674

Q: Which composite z-score reading was recorded for the compound `COC(=O)[C@@]1(Cc2ccc(F)cc2)[C@H]2c3cc(C(=O)N(C)C)n(Cc4ccsc4Br)c3C[C@H]2CN1C(=O)c1ccccc1` ?
Ans: 1.88

Q: Which composite z-score reading was recorded for the compound CN1C(=O)C2C(C1=O)C1C=C(CCCO)C2C(C2CC2)N1C (stereo not given) ?
Ans: -0.16
